Quick list: MIC per entry.
System: C. neoformans MMX 0634 ATCC 90112
Test: MIC assay (CLSI microdilution)
Assay type: cell-based
Conditions: Cryptococcus neoformans, ATCC90112, RPMI plus 0.002% Tween-80; read-out: MIC
Protocol: Aureobasidin and test compounds (i.e., AbA derivatives of the present invention) were received from Kalexsyn, Inc. (Kalamazoo, Mich.) as powder and were stored at 4° C. until the day of assay. […] amphotericin was obtained from Sigma Aldrich and stored under like conditions. […] Ethanol (95%) was used as a solvent and diluent for all AbA compounds. Amphotericin B was tested from 0.06-64 μg/mL. […]
Numbered stars: 1 amine (or outer) side, 2 acyl side, 3 side chain; on linkers, the order of the positions; unused ones are H or OH. Square brackets hold non-standard residues; d marks the D form. Peptide text beside a SMILES is read from it. X1 = CC(C)N1CCN(c2ccc(-c3cccc(C[C@@H](C(=O)[*:2])N(C)[*:1])c3)cc2)CC1; X21 = CC1CCN(c2cc(-c3cccc(C[C@@H](C(=O)[*:2])N(C)[*:1])c3)ccn2)CC1; X26 = CC1CCN(c2cnc(-c3cccc(C[C@@H](C(=O)[*:2])N(C)[*:1])c3)cn2)CC1; X20 = CN([C@@H](Cc1cccc(-c2cnn(C3CCCC3)c2)c1)C(=O)[*:2])[*:1]; X18 = CN([C@@H](Cc1cccc(-c2ccc3ccncc3c2)c1)C(=O)[*:2])[*:1]; Hmp(2R,3S) = CC[C@H](C)[C@@H](O)C(=O)O; NMeVal(β-OH) = CN[C@H](C(=O)O)C(C)(C)O; NMeV = CN[C@H](C(=O)O)C(C)C
Write it as a number; the unit µg/mL goes unstated.

{"columns": ["COMPOUND", "UNIT_INFO", "MIC"],
 "data": [
  ["CC[C@H](C)[C@@H]1NC(=O)[C@@H]2CCCN2C(=O)[C@H](Cc2cccc(-c3ccnc(N4CCC(C)CC4)c3)c2)N(C)C(=O)[C@H](Cc2ccccc2)NC(=O)[C@H](C(C)C)N(C)C(=O)[C@@H]([C@@H](C)CC)OC(=O)[C@H](C(C)(C)O)N(C)C(=O)[C@H](CC(C)C)NC(=O)[C@H](C(C)C)N(C)C1=O [Compound 23] (cyclo(F[X21]PI[NMeV]L[NMeVal(β-OH)][Hmp(2R,3S)][NMeV]))", "µg/mL", 0.25],
  ["CC[C@H](C)[C@@H]1NC(=O)[C@@H]2CCCN2C(=O)[C@H](Cc2cccc(-c3ccc(N4CCN(C(C)C)CC4)cc3)c2)N(C)C(=O)[C@H](Cc2ccccc2)NC(=O)[C@H](C(C)C)N(C)C(=O)[C@@H]([C@@H](C)CC)OC(=O)[C@H](C(C)(C)O)N(C)C(=O)[C@H](CC(C)C)NC(=O)[C@H](C(C)C)N(C)C1=O [Compound 25] (cyclo(F[X1]PI[NMeV]L[NMeVal(β-OH)][Hmp(2R,3S)][NMeV]))", "µg/mL", 0.015],
  ["CC[C@H](C)[C@@H]1NC(=O)[C@@H]2CCCN2C(=O)[C@H](Cc2cccc(-c3cnn(C4CCCC4)c3)c2)N(C)C(=O)[C@H](Cc2ccccc2)NC(=O)[C@H](C(C)C)N(C)C(=O)[C@@H]([C@@H](C)CC)OC(=O)[C@H](C(C)(C)O)N(C)C(=O)[C@H](CC(C)C)NC(=O)[C@H](C(C)C)N(C)C1=O [Compound 12] (cyclo(F[X20]PI[NMeV]L[NMeVal(β-OH)][Hmp(2R,3S)][NMeV]))", "µg/mL", 0.5],
  ["CC[C@H](C)[C@@H]1NC(=O)[C@@H]2CCCN2C(=O)[C@H](Cc2cccc(-c3cnc(N4CCC(C)CC4)cn3)c2)N(C)C(=O)[C@H](Cc2ccccc2)NC(=O)[C@H](C(C)C)N(C)C(=O)[C@@H]([C@@H](C)CC)OC(=O)[C@H](C(C)(C)O)N(C)C(=O)[C@H](CC(C)C)NC(=O)[C@H](C(C)C)N(C)C1=O [Compound 11] (cyclo(F[X26]PI[NMeV]L[NMeVal(β-OH)][Hmp(2R,3S)][NMeV]))", "µg/mL", 0.25]
]}

Next compound, MIC to be filled in.
Query string: Please provide the recorded MIC for CC[C@H](C)[C@@H]1NC(=O)[C@@H]2CCCN2C(=O)[C@H](Cc2cccc(-c3ccc4ccncc4c3)c2)N(C)C(=O)[C@H](Cc2ccccc2)NC(=O)[C@H](C(C)C)N(C)C(=O)[C@@H]([C@@H](C)CC)OC(=O)[C@H](C(C)(C)O)N(C)C(=O)[C@H](CC(C)C)NC(=O)[C@H](C(C)C)N(C)C1=O [Compound 17] (cyclo(F[X18]PI[NMeV]L[NMeVal(β-OH)][Hmp(2R,3S)][NMeV])) , tested on C. neoformans MMX 0634 ATCC 90112.
Result string: 0.25

====

system: A. fumigatus MMX 5280 ATCC MYA-3626; assay: MIC/MEC assay (CLSI microdilution); assay type: cell-based, Aspergillus fumigatus; conditions: Aspergillus fumigatus, 48 h, Without Tween-80, read-out: MEC
Numbered stars: 1 amine (or outer) side, 2 acyl side, 3 side chain; on linkers, the order of the positions; unused ones are H or OH. Square brackets hold non-standard residues; d marks the D form. Peptide text beside a SMILES is read from it. X23 = CN([C@@H](Cc1cccc(-c2cccc3c2cnn3C)c1)C(=O)[*:2])[*:1]; X29 = CN([C@@H](Cc1cccc(-c2ccc(F)cc2)c1)C(=O)[*:2])[*:1]; Hmp(2R,3S) = CC[C@H](C)[C@@H](O)C(=O)O; NMeVal(β-OH) = CN[C@H](C(=O)O)C(C)(C)O; NMeV = CN[C@H](C(=O)O)C(C)C
READOUT_LABEL: minimal effective concentration (µg/mL)
Write it as a number; the unit µg/mL goes unstated.

{"columns": ["COMPOUND", "UNIT_INFO", "RESULT_VALUE"],
 "data": [
  ["CC[C@H](C)[C@@H]1NC(=O)[C@@H]2CCCN2C(=O)[C@H](Cc2cccc(-c3cccc4c3cnn4C)c2)N(C)C(=O)[C@H](Cc2ccccc2)NC(=O)[C@H](C(C)C)N(C)C(=O)[C@@H]([C@@H](C)CC)OC(=O)[C@H](C(C)(C)O)N(C)C(=O)[C@H](CC(C)C)NC(=O)[C@H](C(C)C)N(C)C1=O [Compound 14] (cyclo(F[X23]PI[NMeV]L[NMeVal(β-OH)][Hmp(2R,3S)][NMeV]))", "µg/mL", 2]
]}

Next compound, minimal effective concentration to be filled in.
Query string: I am curious: what minimal effective concentration value has been reported for CC[C@H](C)[C@@H]1NC(=O)[C@@H]2CCCN2C(=O)[C@H](Cc2cccc(-c3ccc(F)cc3)c2)N(C)C(=O)[C@H](Cc2ccccc2)NC(=O)[C@H](C(C)C)N(C)C(=O)[C@@H]([C@@H](C)CC)OC(=O)[C@H](C(C)(C)O)N(C)C(=O)[C@H](CC(C)C)NC(=O)[C@H](C(C)C)N(C)C1=O [Compound 1] (cyclo(F[X29]PI[NMeV]L[NMeVal(β-OH)][Hmp(2R,3S)][NMeV])) ?
Result string: 2

====

Quick list: MIC per entry.
test system: C. neoformans MMX 0634 ATCC 90112; assay: MIC assay (CLSI microdilution); format: cell-based; settings: Cryptococcus neoformans, ATCC90112, RPMI plus 0.002% Tween-80; read-out: MIC
Numbered stars: 1 amine (or outer) side, 2 acyl side, 3 side chain; on linkers, the order of the positions; unused ones are H or OH. Square brackets hold non-standard residues; d marks the D form. Peptide text beside a SMILES is read from it. X15 = CN([C@@H](Cc1cccc(-c2ccc(N3CCOCC3)nc2)c1)C(=O)[*:2])[*:1]; X31 = CN([C@@H](Cc1cccc(-c2cccc(C(F)(F)F)c2)c1)C(=O)[*:2])[*:1]; X29 = CN([C@@H](Cc1cccc(-c2ccc(F)cc2)c1)C(=O)[*:2])[*:1]; Hmp(2R,3S) = CC[C@H](C)[C@@H](O)C(=O)O; NMeVal(β-OH) = CN[C@H](C(=O)O)C(C)(C)O; NMeV = CN[C@H](C(=O)O)C(C)C
Write it as a number; the unit µg/mL goes unstated.

{"columns": ["MOLECULE", "TGT", "RESULT_VALUE"],
 "data": [
  ["CC[C@H](C)[C@@H]1NC(=O)[C@@H]2CCCN2C(=O)[C@H](Cc2cccc(-c3ccc(F)cc3)c2)N(C)C(=O)[C@H](Cc2ccccc2)NC(=O)[C@H](C(C)C)N(C)C(=O)[C@@H]([C@@H](C)CC)OC(=O)[C@H](C(C)(C)O)N(C)C(=O)[C@H](CC(C)C)NC(=O)[C@H](C(C)C)N(C)C1=O [Compound 1] (cyclo(F[X29]PI[NMeV]L[NMeVal(β-OH)][Hmp(2R,3S)][NMeV]))", "C. neoformans MMX 0634 ATCC 90112", 0.12]
]}

Query string: I am curious: what MIC value has been reported for CC[C@H](C)[C@@H]1NC(=O)[C@@H]2CCCN2C(=O)[C@H](Cc2cccc(-c3cccc(C(F)(F)F)c3)c2)N(C)C(=O)[C@H](Cc2ccccc2)NC(=O)[C@H](C(C)C)N(C)C(=O)[C@@H]([C@@H](C)CC)OC(=O)[C@H](C(C)(C)O)N(C)C(=O)[C@H](CC(C)C)NC(=O)[C@H](C(C)C)N(C)C1=O [Compound 4] (cyclo(F[X31]PI[NMeV]L[NMeVal(β-OH)][Hmp(2R,3S)][NMeV])) ?
Result string: 0.25

Query string: I am curious: what MIC value has been reported for CC[C@H](C)[C@@H]1NC(=O)[C@@H]2CCCN2C(=O)[C@H](Cc2cccc(-c3ccc(N4CCOCC4)nc3)c2)N(C)C(=O)[C@H](Cc2ccccc2)NC(=O)[C@H](C(C)C)N(C)C(=O)[C@@H]([C@@H](C)CC)OC(=O)[C@H](C(C)(C)O)N(C)C(=O)[C@H](CC(C)C)NC(=O)[C@H](C(C)C)N(C)C1=O [Compound 24] (cyclo(F[X15]PI[NMeV]L[NMeVal(β-OH)][Hmp(2R,3S)][NMeV])) ?
Result string: 0.5

All figures here come from patent US11066447B2.
